# Test system: ACHN renal
# Protocol summary: NCI-60 one-dose screen, 48 h (100 = growth as untreated, 0 = no growth, -100 = all killed)
# Experimental parameters: 10 µM unless noted
Compounds without any hit were thinned out: in the full panel of roughly 83,000, 20% have a hit.
Exam item: assign Fulfilled to entries whose growth is below 90% and Not fulfilled to entries at or above 90%. Note that a value of exactly 90% receives Not fulfilled.

Study these solved cases before continuing.
| Molecule | Cat |
| --- | --- |
| CN(C)Cc1ccc(NC(=O)c2cncc(C#Cc3cnc(N)c4ncccc34)c2)cc1F | Fulfilled |
| CCOC(=O)CNP(=O)(OC[C@@H](Cc1ccccc1)NC(=O)c1cc2ccccc2s1)Oc1ccccc1 (stereo not given in full) | Not fulfilled |
| COC(=O)c1c2c(c[n+]([O-])c1C)C(=O)C(NCc1ccccc1)=CC2=O | Fulfilled |

Below: the item to evaluate.
Q: Bench note: check whether CCOC(=O)c1nc(Nc2ccc(NC(=O)Nc3ccc(F)cc3)cc2)c2ccccc2n1 shows growth below 90%
Result: Not fulfilled
